meta.source: patent US10597388B2

- Tested on: velvetleaf (Abutilon theophrasti)
- Assay notes: Test C greenhouse herbicide test, pre- and postemergence
- Type: in vivo
- Experimental parameters: Preemergence, 62 g ai/ha; scale 0 to 100, 0 is no effect, 100 is complete control
- From the text: […]
Hi! Just check whether Plant response rating, Velvetleaf is below 90. Below gives yes (1), equal or above gives no (0).

Please indicate whether the reported Plant response rating, Velvetleaf of "CCOC(=O)Oc1c(C)nn(C)c(=O)c1-c1c(C)sc2c(C)cc(C)cc12" is strictly below 90.
yes (1)

Decide: Plant response rating, Velvetleaf of "Cc1ccc2ccccc2c1-c1c(O)c(Cl)nn(C)c1=O" strictly below 90?
no (0)

Threshold test, Plant response rating, Velvetleaf < 90: "CCCC(=O)Oc1c(C)nn(C)c(=O)c1-c1c(C)sc2c(C)cc(C)cc12"
yes (1)

API: query returns whether the molecule falls strictly under 90 in Plant response rating, Velvetleaf. Query: "COC(=O)Oc1c(C)nn(C)c(=O)c1-c1c(C)sc2c(C)cc(C)cc12"
yes (1)

Dear colleague, could you confirm whether Plant response rating, Velvetleaf of "CC(=O)Oc1c(Br)nn(C)c(=O)c1-c1c(C)ccc2ccccc12" falls below 90? Thanks.
yes (1)

----------
- Tested on: goosegrass (Eleusine indica)
- Assay notes: Test E greenhouse herbicide test, pre- and postemergence
- Assay type: in vivo
- Experimental parameters: Preemergence, 31 g ai/ha; scale 0 to 100, 0 no effect, 100 complete control
- From the text: […]
Quantity: Plant response rating, Goosegrass
Form: value (number only, do not type unit).

Looking up CC(=O)Oc1c(C)nn(C)c(=O)c1-c1c(C)sc2c(C)cc(C)cc12 [Compound 27] , I found its Plant response rating, Goosegrass recorded as 35

# Plant response rating, Goosegrass of COC(=O)Oc1c(C)nn(C)c(=O)c1-c1c(C)sc2c(C)cc(C)cc12 [Compound 81] = 20

Item: CCC(=O)Oc1c(C)nn(C)c(=O)c1-c1c(C)sc2ccc(Cl)cc12 [Compound 109] | Plant response rating, Goosegrass: 20

The recorded Plant response rating, Goosegrass for entry CCOC(=O)Oc1c(C)nn(C)c(=O)c1-c1c(C)sc2ccc(C)cc12 [Compound 82] equals 20

----------
- Test system: ragweed (common ragweed, Ambrosia elatior)
- Assay notes: Test C greenhouse herbicide test, pre- and postemergence
- Format: in vivo
- Experimental parameters: Postemergence, 31 g ai/ha; scale 0 to 100 (0 no effect, 100 complete control)
Would you please tag the item Satisfied when its Plant response rating, Ragweed is 80 or above, and Not satisfied when it is below?

In plain terms: is recorded Plant response rating, Ragweed at least 80 for "COC(=O)Oc1cnn(C)c(=O)c1-c1c(C)ccc2ccccc12" ?
Not satisfied

Is Plant response rating, Ragweed for "COc1nn(C)c(=O)c(-c2c(C)ccc3ccccc23)c1OC(C)=O" at or above 80?
Not satisfied

Reported Plant response rating, Ragweed reaches at least 80 for "CC(=O)Oc1c(Br)nn(C)c(=O)c1-c1c(C)ccc2ccccc12" ?
Satisfied

Is the recorded value of Plant response rating, Ragweed equal to or greater than 80 for this compound? "CSCC(=O)Oc1c(C)nn(C)c(=O)c1-c1cccc2ccccc12"
Not satisfied

Reported Plant response rating, Ragweed at or above 80? "Cc1ccc2ccccc2c1-c1c(OC(=O)N2CCOCC2)c(Br)nn(C)c1=O"
Not satisfied

Is it the case that "CCC(=O)Oc1c(C)nn(C)c(=O)c1-c1ccc(Br)c2ccccc12" has Plant response rating, Ragweed reaching or exceeding 80?
Not satisfied

Check the entry "COC(=O)Oc1c(C)nn(C)c(=O)c1-c1c([N+](=O)[O-])ccc2ccccc12" : does Plant response rating, Ragweed equal or exceed 80?
Not satisfied

Decide: Plant response rating, Ragweed of "Cc1ccc2ccccc2c1-c1c(O)c(Cl)nn(C)c1=O" >= 80?
Satisfied
